target: ΔF508 CFTR (Homo sapiens, UniProt P13569, DEL508-508); test: Corrector activity, YFP halide (iodide) quenching assay in FRT cells expressing ΔF508 CFTR; format: cell-based; parameters: expressed in transfected cells; host or cells: Fischer rat thyroid (FRT) cells; details: FRT cells ΔF508 CFTR/YFP, 24 hours with compound at 37° C., forskolin and genistein; read-out: Corrector EC50
Sequence (P13569 with tags, fused parts or gaps DEL508-508): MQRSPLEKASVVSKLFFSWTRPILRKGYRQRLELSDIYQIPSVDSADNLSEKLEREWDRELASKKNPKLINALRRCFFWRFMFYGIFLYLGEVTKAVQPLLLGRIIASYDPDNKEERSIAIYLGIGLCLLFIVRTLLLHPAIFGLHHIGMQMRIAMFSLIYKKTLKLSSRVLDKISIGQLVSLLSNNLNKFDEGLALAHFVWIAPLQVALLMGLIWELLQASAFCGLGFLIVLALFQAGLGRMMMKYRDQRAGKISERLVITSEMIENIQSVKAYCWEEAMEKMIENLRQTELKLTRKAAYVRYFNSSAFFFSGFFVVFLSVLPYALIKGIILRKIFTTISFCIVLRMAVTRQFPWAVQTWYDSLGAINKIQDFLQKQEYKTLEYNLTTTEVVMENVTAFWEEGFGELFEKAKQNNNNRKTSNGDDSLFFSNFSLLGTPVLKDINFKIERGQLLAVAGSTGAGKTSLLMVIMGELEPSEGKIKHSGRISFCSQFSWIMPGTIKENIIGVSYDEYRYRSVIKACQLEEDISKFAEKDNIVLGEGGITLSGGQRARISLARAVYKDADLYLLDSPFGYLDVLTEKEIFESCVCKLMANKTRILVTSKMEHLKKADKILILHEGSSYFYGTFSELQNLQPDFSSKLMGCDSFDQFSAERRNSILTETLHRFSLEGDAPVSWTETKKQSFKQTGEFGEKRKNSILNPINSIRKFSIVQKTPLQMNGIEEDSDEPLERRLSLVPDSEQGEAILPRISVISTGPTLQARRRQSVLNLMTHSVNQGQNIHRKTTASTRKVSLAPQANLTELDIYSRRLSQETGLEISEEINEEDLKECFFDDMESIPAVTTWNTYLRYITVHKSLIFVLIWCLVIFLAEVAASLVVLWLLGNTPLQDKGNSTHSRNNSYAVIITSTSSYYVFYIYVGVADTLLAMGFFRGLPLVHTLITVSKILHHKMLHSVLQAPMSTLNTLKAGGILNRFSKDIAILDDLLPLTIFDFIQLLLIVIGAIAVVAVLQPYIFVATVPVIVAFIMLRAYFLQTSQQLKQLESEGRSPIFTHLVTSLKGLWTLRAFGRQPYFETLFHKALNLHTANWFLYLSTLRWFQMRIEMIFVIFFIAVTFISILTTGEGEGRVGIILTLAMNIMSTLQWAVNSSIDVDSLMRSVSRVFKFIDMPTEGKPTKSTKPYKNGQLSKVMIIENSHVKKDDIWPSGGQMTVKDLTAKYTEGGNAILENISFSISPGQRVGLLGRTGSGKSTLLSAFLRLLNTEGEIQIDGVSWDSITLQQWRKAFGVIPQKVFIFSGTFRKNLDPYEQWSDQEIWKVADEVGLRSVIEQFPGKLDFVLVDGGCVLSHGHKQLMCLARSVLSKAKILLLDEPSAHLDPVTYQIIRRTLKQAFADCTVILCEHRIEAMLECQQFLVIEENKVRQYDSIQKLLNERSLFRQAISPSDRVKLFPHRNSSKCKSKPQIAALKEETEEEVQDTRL
pEC50: −log10 of the molar value.

| compound | pEC50 |
| --- | --- |
| CC(C)(C)n1nc(-c2ccc(Cl)cc2)c2c(NC(=O)C3CCOC3)ncnc21 (centres unmarked) [compound 393] | 5.00 to 5.30 |
| CN1CC(n2nc(Sc3ccccc3)c3c(N)ncnc32)C1 [compound 383] | < 4.82 |
| CC(=O)N1CC(n2cc(Cc3cccc4ccccc34)c3c(N)ncnc32)C1 [compound 306] | < 4.82 |
| Nc1ncnc2c1c(Oc1cccc(Cl)c1)nn2C1CCCC1 [Compound No. 221] | < 4.82 |
| CN1CC[C@H](n2nc(-c3ccc(Cl)cc3)c3c(N)ncnc32)C1 [compound 379] | < 4.82 |

Numbers sourced from patent US20100331297A1.
